test system: SK-MEL-28 melanoma; experiment: NCI-60 one-dose screen, 48 h; settings: 10 µM unless noted
This is part of a sample that, as a whole, favours compounds with a hit. Of some 83,000 tested, about 20% had one in any assay. The source made the active and inactive calls. The calls were made as follows: active = growth percent below 10; inactive = the rest.
The reply should name one outcome from active, inactive

COc1ccc(C2(SCCNCc3cc(N(C)C)ccn3)c3ccccc3C=Cc3ccccc32)cc1 ... inactive

Input line: Returns: the outcome recorded for COc1ccc(N2N=C(c3ccc4c(c3)OCO4)CC2c2cccc(NC(=O)CCCNS(=O)(=O)c3ccc(F)cc3)c2)cc1 (centres undefined) in this assay.
Output line: inactive

Input line: Returns: the outcome recorded for Cc1ccc(/C=C/c2n(Cc3ccc4ccccc4c3)c3ccccc3[n+]2Cc2ccc3ccccc3c2)cc1 in this assay.
Output line: active

Input line: Returns: the outcome recorded for O=C(CN1C(=O)/C(=C/c2ccccc2F)SC1=S)N1CCOCC1 in this assay.
Output line: inactive

Input line: Returns: the outcome recorded for N#Cc1c(-c2ccc(Cl)cc2)nc2n[nH]c(-c3ccc(Cl)cc3)c2c1-c1cccs1 in this assay.
Output line: inactive

Input line: Returns: the outcome recorded for COc1ccc(C(=O)/C=C/c2cccc(Cl)c2Cl)cc1S(N)(=O)=O in this assay.
Output line: active

Input line: Returns: the outcome recorded for O=C(COc1ccc(NC(=O)Nc2ccc(Cl)c(Cl)c2)cc1)N=Nc1c(O)[nH]c2ccc(Br)cc12 in this assay.
Output line: active

Input line: Returns: the outcome recorded for Cn1cc(-c2cc3nc(-c4cn(C)c5ncc(Br)cc45)cc(N)n3n2)c2ccccc21 in this assay.
Output line: active

Input line: Returns: the outcome recorded for COc1cccc(/C=C/C(=O)c2ccc(OC)c(S(N)(=O)=O)c2)c1 in this assay.
Output line: inactive
